Values were extracted from ChEMBL document CHEMBL4308908.

Exercise: state measured GI50 for each of the compounds provided.
tested on: ACHN; assay: Antiproliferative activity against human ACHN cells after 48 hrs by SRB assay; assay type: functional; conditions: read-out: GI50

**Q:** Report GI50 for `COc1cc2c(cc1O)oc(=O)c1c2c(Cl)c2c3cc(OC)c(O)cc3ccn21` please.
**A:** < 0.01 µM

**Q:** Report GI50 for `COc1cc2c(ccc3c4c(=O)oc5cc(O)c(OC)cc5c4n(C)c23)cc1O` please.
**A:** < 0.001 µM

**Q:** Report GI50 for `C#CCn1c2c3cc(OC)c(O)cc3ccc2c2c(=O)oc3cc(O)c(OC)cc3c21` please.
**A:** < 0.01 µM

**Q:** Report GI50 for `COc1cc(-c2c3c4cc(OC)c(O)cc4oc(=O)c3n3ccc4cc(O)c(OC)cc4c23)ccc1O` please.
**A:** < 0.01 µM

**Q:** Report GI50 for `CCn1c2c3cc(OC)c(O)cc3ccc2c2c(=O)oc3cc(O)c(OC)cc3c21` please.
**A:** < 0.01 µM

**Q:** Report GI50 for `COc1cc2c(cc1O)oc(=O)c1c2c(Br)c2c3cc(OC)c(O)cc3ccn21` please.
**A:** 0.015 µM

**Q:** Report GI50 for `COc1cc2c(ccc3c4c(=O)oc5cc(O)c(OC)cc5c4n(CCN(C)C)c23)cc1O` please.
**A:** 0.0019 µM

**Q:** Report GI50 for CCc1c2c(nc3ccc(O)cc13)-c1cc3c(c(=O)n1C2)COC(=O)[C@]3(O)CC [7-ETHYL-10-HYDROXYCAMPTOTHECIN] please.
**A:** 0.0059 µM
